target: Substance-P receptor (Rattus norvegicus, UniProt P14600); test: Binding affinity towards Tachykinin receptor 1 in rat cerebral cortex membranes was determined by using 125 [I]-BHSP as radioligand; type: cell membranes, Membrane
Sequence (P14600 whole entry): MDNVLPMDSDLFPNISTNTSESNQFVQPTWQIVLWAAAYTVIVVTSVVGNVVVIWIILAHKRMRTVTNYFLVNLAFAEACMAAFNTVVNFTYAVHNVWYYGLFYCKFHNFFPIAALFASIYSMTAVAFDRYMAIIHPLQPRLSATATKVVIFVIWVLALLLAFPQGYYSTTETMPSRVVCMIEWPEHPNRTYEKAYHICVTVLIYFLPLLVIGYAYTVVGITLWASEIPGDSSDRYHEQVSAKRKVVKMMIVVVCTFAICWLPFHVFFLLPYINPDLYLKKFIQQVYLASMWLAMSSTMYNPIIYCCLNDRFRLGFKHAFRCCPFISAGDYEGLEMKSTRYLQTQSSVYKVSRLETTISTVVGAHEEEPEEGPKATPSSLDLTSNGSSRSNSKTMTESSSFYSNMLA
pIC50: −log10 of the molar value.
Measurement Kind: pIC50

> print(dat)
                                   molecule                                 tested.on  rel  recorded.result
1  COc1ccccc1CN[C@@H]1C2CCN(CC2)[C@@H]1Cc1ccccc1  Substance-P receptor (Rattus norvegicus, UniProt P14600)    <             6.00
2  c1ccc(CN[C@@H]2C3CCN(CC3)[C@@H]2C(c2ccccc2)c2ccccc2)cc1  Substance-P receptor (Rattus norvegicus, UniProt P14600)    =             5.70
3  Cc1ccccc1CN[C@@H]1C2CCN(CC2)[C@@H]1C(c1ccccc1)c1ccccc1  Substance-P receptor (Rattus norvegicus, UniProt P14600)    =             6.15
4  O=C(N[C@@H]1C2CCN(CC2)[C@@H]1C(c1ccccc1)c1ccccc1)c1ccccc1Cl  Substance-P receptor (Rattus norvegicus, UniProt P14600)    <             5.00

The origin of these recorded values is ChEMBL document CHEMBL1159145.
